- experiment description: Rat in vivo CNS penetration (plasma, brain and CSF concentrations)
- condition notes: male, Sprague Dawley, CSF / plasma (unbound), po; rat, 10 mg/kg p.o., 2 h; read-out: CSF:Plu

{"columns": ["smiles input", "Kp at 2 h"],
 "data": [
  ["NC1=N[C@@]2(c3cc(NC(=O)c4cnc(CF)cn4)ccc3F)CO[C@H](C(F)(F)F)[C@H]2CS1", 0.5]
]}

---

- experiment description: Rat in vivo CNS penetration (plasma, brain and CSF concentrations)
- condition notes: male, Sprague Dawley, brain (unbound) / plasma (unbound), po; rat, 10 mg/kg p.o., 6 h; read-out: Bru:Plu

{"columns": ["smiles input", "Kp at 6 h"],
 "data": [
  ["NC1=N[C@@]2(c3cc(NC(=O)c4cnc(CF)cn4)ccc3F)CO[C@H](C(F)(F)F)[C@H]2CS1", 0.8]
]}

---

- experiment description: Brain tissue binding (BTB), rapid equilibrium dialysis
- Type: in vitro ADME
- condition notes: male, Sprague Dawley, pH 7.4, fraction unbound, rat brain homogenate, RED 6 h 37° C., mean of n = 3, read-out: Rat Brain fu
quantity kind: fraction unbound at 6 h, 1 μg/mL

{"columns": ["molecule", "quantity kind", "measured result"],
 "data": [
  ["NC1=N[C@@]2(c3cc(NC(=O)c4cnc(CF)cn4)ccc3F)CO[C@H](C(F)(F)F)[C@H]2CS1 [Example 8]", "fraction unbound at 6 h, 1 μg/mL", 0.022]
]}

---

- experiment description: Plasma protein binding (PPB), rapid equilibrium dialysis
- Format: in vitro ADME
- condition notes: male, Sprague Dawley, rat, pH 7.4, fraction unbound, rat plasma, RED 6 h 37° C., mean of n = 3, read-out: Rat Plasma fu
quantity kind: fraction unbound at 6 h, 1 μg/mL

{"columns": ["smiles input", "measured result"],
 "data": [
  ["NC1=N[C@@]2(c3cc(NC(=O)c4cnc(CF)cn4)ccc3F)CO[C@H](C(F)(F)F)[C@H]2CS1", 0.104]
]}

---

- experiment description: Rat in vivo CNS penetration (plasma, brain and CSF concentrations)
- condition notes: male, Sprague Dawley, brain (total) / plasma (total), po; rat, 10 mg/kg p.o., 8 h; read-out: Brtot:Pltot
- Description: Rat In Vivo CNS Penetration Male Sprague Dawley rats were acquired from Charles River UK Ltd. (Margate, UK) and housed according to UK Home Office guidelines. Drugs were made up to the appropriate concentrations in 0.5% methyl cellulose. Animals were dosed orally (2 mL/kg) by gavage at the doses outlined in Tables 2 to 4 below. […]
quantity kind: Kp at 8 h

{"columns": ["smiles input", "quantity kind", "measured result"],
 "data": [
  ["NC1=N[C@@]2(c3cc(NC(=O)c4cnc(CF)cn4)ccc3F)CO[C@H](C(F)(F)F)[C@H]2CS1", "Kp at 8 h", 3.8]
]}

---

- experiment description: Rat in vivo CNS penetration (plasma, brain and CSF concentrations)
- condition notes: male, Sprague Dawley, brain (total) / plasma (total), po; rat, 10 mg/kg p.o., 4 h; read-out: Brtot:Pltot

{"columns": ["smiles input", "Kp at 4 h"],
 "data": [
  ["NC1=N[C@@]2(c3cc(NC(=O)c4cnc(CF)cn4)ccc3F)CO[C@H](C(F)(F)F)[C@H]2CS1", 3.9]
]}
